Entries and their EC50 [µM], FXa generation assay values follow.
# measured_target: human Factor IXa (human, UniProt P00740 47-191; P00740 227-461)
# procedure_details: cell-based or functional assay
Ends that are not written are not given here.

binder	EC50 [µM], FXa generation assay
RRAPGKCTALASYAWCFWTGIA-OH (cysteine pairing not given here) [RRAPGKCTALASYAWCFWTGIA-COOH]	> 1 µM
RRAPGKLTCLASYCWLFWTTYASYATKPADTT [RRAPGKLTCLASYCWLF WTTYA SYATKPADTT]	< 0.5 µM
TQWAQVGPRGRRAQGKLTCLASYCWLFWTGIA [TQWAQVGPRG RRAQG KLTCLASYCWLFWTGIA]	< 0.5 µM

src = patent US20140303084A1
